Origin of values: PubChem BioAssay (NCI)

- Test system: SF-268 CNS
- ASSAY_METHOD_TEXT: NCI tumour cell line growth inhibition, 48 h
MEASURE: TGI

Would you please look over these solved cases?
[
  {
    "COMPOUND": "COc1ccc(C2SC(N)=Nc3c2c(C)nn3C(=O)c2ccc(Cl)cc2)cc1OC (centres undefined)",
    "RECORDED_MEASUREMENT": "> 10 µM"
  },
  {
    "COMPOUND": "CC1CCc2sc3nc4n(c(=O)c3c2C1)CC(C)S4 (centres undefined)",
    "RECORDED_MEASUREMENT": "> 100 µM"
  },
  {
    "COMPOUND": "CC(=O)c1cccc(N(/C=C/C(=O)C(F)(F)F)CC(=O)c2ccc(Cl)cc2)c1",
    "RECORDED_MEASUREMENT": "> 100 µM"
  },
  {
    "COMPOUND": "O=C1CS/C(=N/N=C/c2cn(Cc3ccc(Cl)cc3Cl)c3ccccc23)N1",
    "RECORDED_MEASUREMENT": "> 100 µM"
  },
  {
    "COMPOUND": "NCCCCNCCCNC(=O)CNC(=O)CC(O)C(N)CCCC(NC(=O)C(CN)NC(=O)C(O)CNC(=O)CC(N)c1ccc(O)cc1)C(=O)O (centres undefined)",
    "RECORDED_MEASUREMENT": "> 10 µM"
  },
  {
    "COMPOUND": "O=C(/C=C\\Nc1ccccc1O)C(F)(F)F",
    "RECORDED_MEASUREMENT": "> 100 µM"
  },
  {
    "COMPOUND": "O=C(Sc1c(-c2ccccc2)c(=O)n(-c2ccccc2)c(=S)n1-c1ccccc1)c1ccco1",
    "RECORDED_MEASUREMENT": "> 100 µM"
  },
  {
    "COMPOUND": "CCCO/N=[N+](\\[O-])N(CC)CC",
    "RECORDED_MEASUREMENT": "> 100 µM"
  },
  {
    "COMPOUND": "Cc1nc2c(n1CC(C)(C)C)C(=O)c1ccccc1C2=O",
    "RECORDED_MEASUREMENT": "> 100 µM"
  },
  {
    "COMPOUND": "CC1(C)N=C(N)N=C(N)N1c1ccc(CCc2ccccc2)c(Cl)c1",
    "RECORDED_MEASUREMENT": "14.3 µM"
  }
]

Name the value of TGI reported for CC(=O)N(C)c1ccc(Nc2ccnc3ccc4nn(C)nc4c23)cc1 when tested on SF-268 CNS. > 100 µM

Name the value of TGI reported for Cc1cc(N(CCNc2ccnc3cc(Cl)ccc23)Cc2ccc3c(c2)OCO3)nc(N2CCN(C)CC2)n1 when tested on SF-268 CNS. 7.89 µM

Name the value of TGI reported for NC(Cc1[nH]nc2ccccc12)C(=O)O (centres undefined) when tested on SF-268 CNS. > 100 µM

Name the value of TGI reported for C=C1CC(COc2ccc3c(C)c(C)c(=O)oc3c2C)(c2ccccc2)OC1=O (centres undefined) when tested on SF-268 CNS. 7.96 µM

====

- Test system: NCI-H23 lung
- ASSAY_METHOD_TEXT: NCI tumour cell line growth inhibition, 48 h
Reported TGI is given for each of the following molecules.

Provide measured TGI value, entry: CC1(C)OC[C@@H](C[C@H](O)COCc2ccccc2)O1 > 100 µM

Provide measured TGI value, entry: COc1ccc(Cl)cc1Nc1nc(C(F)(F)F)ccc1C(=O)NN > 49.5 µM

Provide measured TGI value, entry: CCOc1ccc(N=Nc2ccc3cc(/C(C)=N/NC(=O)/C(C#N)=C\c4ccc(N(CCC#N)CCC#N)cc4)c(=O)oc3c2)cc1 > 10 µM

Provide measured TGI value, entry: CCOC(=O)/C=C(/C=C\COC1CCCCO1)c1ccccc1 (stereo not given) > 100 µM

Provide measured TGI value, entry: CCN(CC)c1ccc(NC(=S)NN(C)C)cc1 > 10 µM
